Form field: inhibition at 0.041 µM (one value per entry).
# SUBJECT_OF_TEST: EGFR (ErbB1) (Homo sapiens (Human), UniProt P00533)
# Sequence (P00533 25-1210): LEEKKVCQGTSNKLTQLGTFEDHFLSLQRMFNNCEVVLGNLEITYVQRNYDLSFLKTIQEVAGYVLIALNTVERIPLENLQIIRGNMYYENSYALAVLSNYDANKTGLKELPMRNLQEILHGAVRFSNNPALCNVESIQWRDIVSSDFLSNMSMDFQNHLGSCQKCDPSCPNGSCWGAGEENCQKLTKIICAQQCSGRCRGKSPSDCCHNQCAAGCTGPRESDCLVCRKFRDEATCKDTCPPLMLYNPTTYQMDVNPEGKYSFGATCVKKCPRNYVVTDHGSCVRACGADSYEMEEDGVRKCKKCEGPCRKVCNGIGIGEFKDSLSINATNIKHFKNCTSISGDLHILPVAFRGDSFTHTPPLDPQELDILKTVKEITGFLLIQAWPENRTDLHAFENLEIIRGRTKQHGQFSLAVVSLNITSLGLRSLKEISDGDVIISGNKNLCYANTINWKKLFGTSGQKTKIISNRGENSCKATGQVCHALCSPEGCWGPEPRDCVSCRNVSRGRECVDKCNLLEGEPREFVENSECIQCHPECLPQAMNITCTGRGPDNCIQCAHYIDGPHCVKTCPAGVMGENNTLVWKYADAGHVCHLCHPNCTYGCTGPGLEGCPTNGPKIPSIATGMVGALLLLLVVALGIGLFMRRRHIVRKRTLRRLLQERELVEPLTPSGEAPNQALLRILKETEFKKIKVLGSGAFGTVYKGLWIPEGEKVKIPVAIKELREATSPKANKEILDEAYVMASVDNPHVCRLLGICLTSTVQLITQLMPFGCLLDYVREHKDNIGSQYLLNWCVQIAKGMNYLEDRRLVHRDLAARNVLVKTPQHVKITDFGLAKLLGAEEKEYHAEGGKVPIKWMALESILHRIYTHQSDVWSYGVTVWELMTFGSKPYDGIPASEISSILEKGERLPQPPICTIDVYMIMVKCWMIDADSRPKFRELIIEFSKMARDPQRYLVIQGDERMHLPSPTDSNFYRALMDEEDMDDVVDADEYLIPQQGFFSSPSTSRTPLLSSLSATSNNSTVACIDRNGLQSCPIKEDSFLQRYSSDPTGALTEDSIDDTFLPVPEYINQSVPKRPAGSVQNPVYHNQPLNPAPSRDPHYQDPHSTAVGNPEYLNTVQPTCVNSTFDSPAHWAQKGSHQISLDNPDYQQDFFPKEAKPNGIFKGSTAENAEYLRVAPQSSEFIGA
# ASSAY_SUMMARY: Z'-LYTE kinase inhibition assay, EGFR
# Type: biochemical
# MEASUREMENT_SETUP: read-out: % inhibition against EGFR (Compound at 0.041 μM)

Answered examples (2):
COMPOUND	inhibition at 0.041 µM
C=CC(=O)Nc1cccc(-c2cccc3cnc(Nc4ccc(N5CCN(CCO)CC5)c(F)c4F)nc23)c1	< 50%
C=CC(=O)Nc1cccc(-c2cccc3cnc(Nc4ccc(N5CCN(C)C(C(=O)O)C5)cc4)nc23)c1 (stereo not drawn)	< 50%

As a next step, examine the compound that follows.
Query: Entry under review: C=CC(=O)Nc1cccc(-c2cccc3cnc(Nc4ccc(N5CCN(C)CC5)c(C(N)=O)c4)nc23)c1 . Reported inhibition at 0.041 µM?
Reply: < 50%

====

# SUBJECT_OF_TEST: BTK (Homo sapiens (Human))
# ASSAY_SUMMARY: Z'-LYTE kinase inhibition assay, BTK
# Format: biochemical
# MEASUREMENT_SETUP: compound at 0.041 μM; read-out: % inhibition against BTK
MEASURED_PROPERTY: inhibition at 0.041 µM

MOLECULE	MEASURED_PROPERTY	OBSERVED_VALUE
C=CC(=O)Nc1cccc(-c2cccc3cnc(Nc4ccc(NC5CCOCC5)cc4)nc23)c1 [Example C111]	inhibition at 0.041 µM	> 50%

Query: Entry under review: C=CC(=O)Nc1cccc(-c2cccc3cnc(Nc4ccc(OC5CN(C(C)=O)C5)cc4)nc23)c1 [Example C122] . Reported inhibition at 0.041 µM?
Reply: > 50%

Query: Entry under review: C=CC(=O)Nc1cccc(-c2cccc3cnc(Nc4ccc(N[C@H]5CCOC5)cc4)nc23)c1 [Example C114] . Reported inhibition at 0.041 µM?
Reply: > 50%

====

# SUBJECT_OF_TEST: EGFR (ErbB1) T790M L858R (Homo sapiens (Human), UniProt P00533, L858R/T790M)
# Sequence (P00533 25-1210 T790M/L858R): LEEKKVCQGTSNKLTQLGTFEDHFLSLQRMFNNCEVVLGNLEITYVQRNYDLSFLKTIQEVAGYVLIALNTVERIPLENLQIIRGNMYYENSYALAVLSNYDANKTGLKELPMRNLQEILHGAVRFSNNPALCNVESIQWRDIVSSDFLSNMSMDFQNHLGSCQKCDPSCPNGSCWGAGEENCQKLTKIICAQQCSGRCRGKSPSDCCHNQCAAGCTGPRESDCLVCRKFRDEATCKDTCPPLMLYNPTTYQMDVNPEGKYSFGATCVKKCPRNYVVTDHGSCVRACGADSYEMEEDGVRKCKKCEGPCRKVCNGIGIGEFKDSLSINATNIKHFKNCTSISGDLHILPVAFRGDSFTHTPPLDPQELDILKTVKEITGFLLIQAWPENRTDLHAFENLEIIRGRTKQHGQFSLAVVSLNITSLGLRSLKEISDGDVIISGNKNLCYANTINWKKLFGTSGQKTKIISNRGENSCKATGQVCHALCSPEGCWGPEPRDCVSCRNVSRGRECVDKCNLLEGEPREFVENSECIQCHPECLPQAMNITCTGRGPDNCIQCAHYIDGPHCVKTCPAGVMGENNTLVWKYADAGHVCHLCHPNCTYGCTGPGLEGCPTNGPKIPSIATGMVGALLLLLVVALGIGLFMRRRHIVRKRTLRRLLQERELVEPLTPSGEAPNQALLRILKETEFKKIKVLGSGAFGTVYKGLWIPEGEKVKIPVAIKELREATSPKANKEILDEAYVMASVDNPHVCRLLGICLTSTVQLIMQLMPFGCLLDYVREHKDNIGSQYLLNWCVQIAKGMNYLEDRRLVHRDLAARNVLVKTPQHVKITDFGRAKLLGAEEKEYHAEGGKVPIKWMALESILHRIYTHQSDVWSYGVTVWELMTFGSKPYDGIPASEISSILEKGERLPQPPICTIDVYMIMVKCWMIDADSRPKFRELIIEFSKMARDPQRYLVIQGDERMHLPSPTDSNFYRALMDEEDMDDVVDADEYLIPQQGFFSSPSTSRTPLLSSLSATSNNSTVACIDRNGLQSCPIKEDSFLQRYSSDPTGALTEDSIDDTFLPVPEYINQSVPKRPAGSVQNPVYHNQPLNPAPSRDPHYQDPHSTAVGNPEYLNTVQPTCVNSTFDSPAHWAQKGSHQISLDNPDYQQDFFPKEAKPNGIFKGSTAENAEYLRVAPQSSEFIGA
# ASSAY_SUMMARY: Z'-LYTE kinase inhibition assay, EGFR L858R/T790M
# Format: biochemical
# MEASUREMENT_SETUP: read-out: % inhibition against EGFR L858R/T790M (Compound at 0.0137 μM)
Form field: inhibition at 0.0137 µM (one value per entry).

Answered examples (2):
COMPOUND	inhibition at 0.0137 µM
C=CC(=O)Nc1cccc(-c2cccc3cnc(Nc4cnc(N5CCN(C)CC5)c(C#N)c4)nc23)c1 [Example C086]	> 50%
C=CC(=O)Nc1cccc(-c2cccc3cnc(Nc4ccc(N5CCN(C)CC5)cc4C(=O)OC)nc23)c1 [Example C104]	< 50%

Query: Entry under review: C=CC(=O)Nc1cccc(-c2cccc3cnc(Nc4ccc(N5CCN(CC(C)(C)O)CC5)cc4F)nc23)c1 [Example C149] . Reported inhibition at 0.0137 µM?
Reply: < 50%

Query: Entry under review: C=CC(=O)Nc1cccc(-c2cccc3cnc(Nc4ccc(OC5CCN(C)CC5)cc4F)nc23)c1 [Example C141] . Reported inhibition at 0.0137 µM?
Reply: > 50%

====

# SUBJECT_OF_TEST: EGFR (ErbB1) (Homo sapiens (Human), UniProt P00533)
# ASSAY_SUMMARY: Z'-LYTE kinase inhibition assay, EGFR
# Type: biochemical
# MEASUREMENT_SETUP: read-out: % inhibition against EGFR (Compound at 0.041 μM)
Form field: inhibition at 0.041 µM (one value per entry).

COMPOUND	OBSERVED_VALUE
C=CC(=O)Nc1ccc(C#N)c(-c2cccc3cnc(Nc4ccc(N5CCN(C)CC5)cc4)nc23)c1 [Example C100]	< 50%
C=CC(=O)Nc1cccc(-c2cccc3cnc(Nc4ccc(-n5ccnc5)cc4)nc23)c1 [Example C094]	< 50%
C=CC(=O)Nc1cccc(-c2cccc3cnc(Nc4ccc(N5CCN(C)CC5)cc4)nc23)c1OC [Example C063]	> 50%
C=CC(=O)Nc1cccc(-c2cccc3cnc(Nc4ccc(N5CCC(O)C5)cc4)nc23)c1 (stereo not drawn) [Example C098]	< 50%
C=CC(=O)Nc1cccc(-c2cccc3cnc(Nc4ccc(OC5CCN(C)CC5)cc4)nc23)c1 [Example C126]	> 50%

Query: Entry under review: C=CC(=O)Nc1cccc(-c2cccc3cnc(Nc4ccc(N5CCN(C)C(CO)C5)cc4)nc23)c1 (stereo not drawn) [Example C077] . Reported inhibition at 0.041 µM?
Reply: < 50%

Query: Entry under review: C=CC(=O)Nc1cccc(-c2cccc3cnc(Nc4ccc(OCCN(C)C)cc4)nc23)c1 [Example C110] . Reported inhibition at 0.041 µM?
Reply: < 50%

Query: Entry under review: C=CC(=O)Nc1cccc(-c2cccc3cnc(Nc4ccc(O[C@@H]5CCN(C(C)=O)C5)cc4)nc23)c1 [Example C133] . Reported inhibition at 0.041 µM?
Reply: < 50%

Query: Entry under review: C=CC(=O)Nc1cncc(-c2cccc3cnc(Nc4ccc(N5CCN(C)CC5)cc4)nc23)c1 [Example C040] . Reported inhibition at 0.041 µM?
Reply: > 50%

====

# SUBJECT_OF_TEST: EGFR (ErbB1) (Homo sapiens (Human))
# ASSAY_SUMMARY: Z'-LYTE kinase inhibition assay, EGFR
# Format: biochemical
# MEASUREMENT_SETUP: read-out: % inhibition against EGFR (Compound at 0.041 μM)
Form field: inhibition at 0.041 µM (one value per entry).

Answered examples (3):
COMPOUND	OBSERVED_VALUE
C=CC(=O)Nc1cccc(-c2cccc3cnc(Nc4ccc(N5CCN(CC(N)=O)CC5)cc4)nc23)c1	< 50%
C=CC(=O)Nc1cccc(-c2cccc3cnc(Nc4cnc(N5CCN(C)CC5)c(C#N)c4)nc23)c1	< 50%
C=CC(=O)Nc1cccc(-c2cccc3cnc(Nc4ccc(N5CCN(C)CC5)nc4)nc23)c1	> 50%

Query: Entry under review: C=CC(=O)Nc1cccc(-c2c(C)ccc3cnc(Nc4ccc(N5CCN(C)CC5)cc4)nc23)c1 . Reported inhibition at 0.041 µM?
Reply: > 50%

Query: Entry under review: C=CC(=O)Nc1cccc(-c2cccc3cnc(Nc4ccc(N5CCN(C(=O)CO)CC5)cc4)nc23)c1 . Reported inhibition at 0.041 µM?
Reply: < 50%

====

Form field: inhibition at 0.041 µM (one value per entry).
# SUBJECT_OF_TEST: JAK2 (Homo sapiens (Human), UniProt O60674)
# Sequence (O60674 whole entry): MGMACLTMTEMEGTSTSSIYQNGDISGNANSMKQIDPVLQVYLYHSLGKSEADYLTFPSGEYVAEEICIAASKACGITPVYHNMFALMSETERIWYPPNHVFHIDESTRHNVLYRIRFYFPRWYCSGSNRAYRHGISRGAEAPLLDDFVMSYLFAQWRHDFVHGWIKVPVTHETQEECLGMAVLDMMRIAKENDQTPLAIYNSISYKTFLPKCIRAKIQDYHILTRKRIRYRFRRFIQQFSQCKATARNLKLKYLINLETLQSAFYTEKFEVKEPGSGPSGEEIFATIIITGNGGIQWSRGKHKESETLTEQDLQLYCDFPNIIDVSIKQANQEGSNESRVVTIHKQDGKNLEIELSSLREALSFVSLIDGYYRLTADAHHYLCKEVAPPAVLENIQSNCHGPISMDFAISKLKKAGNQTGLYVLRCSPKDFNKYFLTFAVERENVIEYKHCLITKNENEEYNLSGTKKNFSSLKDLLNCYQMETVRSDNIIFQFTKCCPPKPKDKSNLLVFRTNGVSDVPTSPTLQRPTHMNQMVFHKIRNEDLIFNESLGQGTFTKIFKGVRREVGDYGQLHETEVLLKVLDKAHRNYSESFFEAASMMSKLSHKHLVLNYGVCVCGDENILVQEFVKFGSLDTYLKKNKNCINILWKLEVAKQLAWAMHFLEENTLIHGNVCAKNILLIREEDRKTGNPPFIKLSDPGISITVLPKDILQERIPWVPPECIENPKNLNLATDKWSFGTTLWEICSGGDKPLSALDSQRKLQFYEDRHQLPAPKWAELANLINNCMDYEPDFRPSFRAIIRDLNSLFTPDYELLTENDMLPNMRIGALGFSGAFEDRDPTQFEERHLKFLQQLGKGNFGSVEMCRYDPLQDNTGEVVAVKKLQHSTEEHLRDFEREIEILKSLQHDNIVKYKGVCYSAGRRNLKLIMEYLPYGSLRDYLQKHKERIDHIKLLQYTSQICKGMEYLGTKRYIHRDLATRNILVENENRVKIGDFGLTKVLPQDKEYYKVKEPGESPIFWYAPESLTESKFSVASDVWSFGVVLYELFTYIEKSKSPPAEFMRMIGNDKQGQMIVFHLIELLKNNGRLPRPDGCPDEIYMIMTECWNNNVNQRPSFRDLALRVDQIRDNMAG
# ASSAY_SUMMARY: Z'-LYTE kinase inhibition assay, JAK2
# Assay type: biochemical
# MEASUREMENT_SETUP: compound at 0.041 μM; read-out: % inhibition against JAK2

LINE_NOTATION	SUBJECT_OF_TEST	inhibition at 0.041 µM
C=CC(=O)Nc1cccc(-c2cccc3cnc(Nc4ccc(N5CCN(C)CC5)nc4OC)nc23)c1	JAK2 (Homo sapiens (Human), UniProt O60674)	< 50%

Query: // map C=CC(=O)Nc1cccc(-c2nccc3c(N)nc(Nc4ccc(N5CCOCC5)cc4)nc23)c1 to recorded inhibition at 0.041 µM (system: JAK2 (Homo sapiens (Human), UniProt O60674))
Reply: < 50%

Query: // map C=CC(=O)Nc1cccc(-c2cccc3cnc(Nc4ccc(N5CCN(CCF)CC5)cc4)nc23)c1 to recorded inhibition at 0.041 µM (system: JAK2 (Homo sapiens (Human), UniProt O60674))
Reply: > 50%

Query: // map Clc1cccc(-c2cccc3cnc(Nc4ccc(N5CCOCC5)cc4)nc23)c1 to recorded inhibition at 0.041 µM (system: JAK2 (Homo sapiens (Human), UniProt O60674))
Reply: > 50%

Query: // map C=CC(=O)Nc1cccc(-c2cccc3cnc(Nc4ccc(N5CCN(C)CC5)cc4)nc23)c1Cl to recorded inhibition at 0.041 µM (system: JAK2 (Homo sapiens (Human), UniProt O60674))
Reply: > 50%

====

Form field: inhibition at 0.041 µM (one value per entry).
# SUBJECT_OF_TEST: BTK (Homo sapiens (Human), UniProt Q06187)
# Sequence (Q06187 whole entry): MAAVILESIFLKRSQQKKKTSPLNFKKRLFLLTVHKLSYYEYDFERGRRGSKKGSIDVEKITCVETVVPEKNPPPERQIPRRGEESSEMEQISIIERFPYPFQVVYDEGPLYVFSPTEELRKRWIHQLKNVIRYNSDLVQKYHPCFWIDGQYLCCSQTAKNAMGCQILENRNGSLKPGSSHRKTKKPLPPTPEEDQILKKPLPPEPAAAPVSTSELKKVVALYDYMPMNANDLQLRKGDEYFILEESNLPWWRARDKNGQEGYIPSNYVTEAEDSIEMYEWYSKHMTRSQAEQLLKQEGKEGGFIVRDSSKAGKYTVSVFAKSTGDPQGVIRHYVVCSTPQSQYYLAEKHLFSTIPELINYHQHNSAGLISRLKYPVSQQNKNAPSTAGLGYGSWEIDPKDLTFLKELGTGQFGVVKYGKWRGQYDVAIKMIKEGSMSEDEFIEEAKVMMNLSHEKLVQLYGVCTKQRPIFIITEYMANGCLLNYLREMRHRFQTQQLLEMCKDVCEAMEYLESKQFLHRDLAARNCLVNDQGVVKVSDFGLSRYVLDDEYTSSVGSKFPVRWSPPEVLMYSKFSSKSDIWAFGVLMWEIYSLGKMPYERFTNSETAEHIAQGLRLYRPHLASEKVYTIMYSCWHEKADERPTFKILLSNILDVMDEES
# ASSAY_SUMMARY: Z'-LYTE kinase inhibition assay, BTK
# Assay type: biochemical
# MEASUREMENT_SETUP: compound at 0.041 μM; read-out: % inhibition against BTK

Answered examples (2):
LINE_NOTATION	inhibition at 0.041 µM
C=CC(=O)Nc1cccc(-c2cccc3cnc(Nc4ccc(N5CCN(C)C(=O)C5)cc4)nc23)c1	> 50%
Fc1cccc(-c2cccc3cnc(Nc4ccc(N5CCOCC5)cc4)nc23)c1	< 50%

As a next step, examine the compound that follows.
Query: Entry under review: C=CC(=O)Nc1cncc(-c2cccc3cnc(Nc4ccc(N5CCN(C)CC5)cc4)nc23)c1 . Reported inhibition at 0.041 µM?
Reply: > 50%

====

# SUBJECT_OF_TEST: EGFR (ErbB1) (Homo sapiens (Human))
# ASSAY_SUMMARY: Z'-LYTE kinase inhibition assay, EGFR
# Format: biochemical
# MEASUREMENT_SETUP: read-out: % inhibition against EGFR (Compound at 0.041 μM)
MEASURED_PROPERTY: inhibition at 0.041 µM

Answered examples (5):
MOLECULE	MEASURED_PROPERTY	OBSERVED_VALUE
C=CC(=O)Nc1cccc(-c2cccc3cnc(Nc4ccc(N5CCN(C)C(C(=O)OC)C5)cc4)nc23)c1 (stereo not drawn)	inhibition at 0.041 µM	< 50%
C=CC(=O)Nc1cccc(-c2cccc3cnc(Nc4ccc(N(C)CCF)cc4)nc23)c1	inhibition at 0.041 µM	< 50%
C=CC(=O)Nc1cccc(-c2cccc3cnc(Nc4ccc(N5CCCOCC5)cc4)nc23)c1	inhibition at 0.041 µM	< 50%
CC(=O)N1CCN(c2ccc(Nc3ncc4cccc(-c5cccc(NC(=O)/C=C/CN(C)C)c5)c4n3)cc2)CC1	inhibition at 0.041 µM	< 50%
C=CC(=O)Nc1cccc(-c2cccc3cnc(Nc4cnc(N5CCN(C)CC5)c(Cl)c4)nc23)c1	inhibition at 0.041 µM	< 50%

Query: Entry under review: C=CC(=O)Nc1cc(-c2cccc3cnc(Nc4ccc(N5CCN(C)CC5)cc4)nc23)n[nH]1 . Reported inhibition at 0.041 µM?
Reply: < 50%

Query: Entry under review: C=CC(=O)Nc1cccc(-c2cccc3cnc(Nc4ccc(N5CCN(C)CC5)cc4)nc23)c1F . Reported inhibition at 0.041 µM?
Reply: > 50%

Query: Entry under review: C=CC(=O)Nc1cccc(-c2cccc3cnc(Nc4ccc(OC5CN(C(C)=O)C5)cc4)nc23)c1 . Reported inhibition at 0.041 µM?
Reply: < 50%

Query: Entry under review: C=CC(=O)Nc1cccc(-c2cccc3cnc(Nc4ccc(N5CCNC(=O)C5)cc4)nc23)c1 . Reported inhibition at 0.041 µM?
Reply: < 50%

Query: Entry under review: C=CC(=O)Nc1ccc(F)c(-c2cccc3cnc(Nc4ccc(N5CCN(C)CC5)cc4)nc23)c1 . Reported inhibition at 0.041 µM?
Reply: > 50%

src = patent US10172868B2
